Hello, the source for this data is patent US8883745B2, in case you need it.

Quick reference for IL-4 level, test 1 among some compounds
# Tested on: IL-4
# procedure-summary: IL-4 levels in sera upon i.v. glycolipid administration to BALB/c mice (ELISA)
# Type: in vivo
# Parameters: unit not given here
# measurement-context: hour 0
Answer with the value's number alone.

Field: example entries. Status: answers known.
| compound | target-or-system | observed-property | observed |
| --- | --- | --- | --- |
| CCCCCCCCCCCCCCCCC/C=C/CCCCCCCCC(=O)N[C@@H](CC[C@H]1O[C@H](CO)[C@H](O)[C@H](O)[C@H]1O)[C@H](O)[C@H](O)CCCCCCCCCCCCCC [A-3] | IL-4 | IL-4 level, test 1 | 27 |
| CCCCCCCCCCCCCCCCCC/C=C/CCCCCCCCC(=O)N[C@@H](/C=C/[C@H]1O[C@H](CO)[C@H](O)[C@H](O)[C@H]1O)[C@H](O)[C@H](O)CCCCCCCCCCCCCC [A-1] | IL-4 | IL-4 level, test 1 | 27 |
| CCCCCCCCCCCCCC[C@@H](O)[C@@H](O)[C@H](CC[C@H]1O[C@H](CO)[C@H](O)[C@H](O)[C@H]1O)NC(=O)CCCCCCCCCCCCCCCCCCCOCCCCC [A-5] | IL-4 | IL-4 level, test 1 | 27 |

For the next question, use this compound.
Input: Provide one value: measured IL-4 level, test 1 of CCCCCCCCCCCCCCCCCCCCCCCCCCCCC(=O)N[C@@H](/C=C/[C@H]1O[C@H](CO)[C@H](O)[C@H](O)[C@H]1O)[C@H](O)[C@H](O)CCCCCCCCCCCCCC [A-2]
Output: 27

###

# System: IL-4
# procedure-summary: IL-4 levels in sera upon i.v. glycolipid administration to C57BL/6 mice (ELISA)
# Format: in vivo
# Set-up: unit not given here
# measurement-context: hour 2
Reported IL-4 level, average values for a set of compounds
Just the number, please, no unit after it.

Below are worked cases with known answers.
| compound | target-or-system | IL-4 level, average |
| --- | --- | --- |
| CCCCCCCCCCCCCC[C@@H](O)[C@@H](O)[C@H](CC[C@H]1O[C@H](CO)[C@H](O)[C@H](O)[C@H]1O)NC(=O)CCCCCCCCCCCCCCCCCCCOCCCCCC | IL-4 | 696.5 |
| CCCCCCCCCCCCCCCCCCCCCCCCCC(=O)N[C@@H](CO[C@H]1O[C@H](CO)[C@H](O)[C@H](O)[C@H]1O)[C@H](O)[C@H](O)CCCCCCCCCCCCCC [KRN, reference compound] | IL-4 | 3915 |

Attention now turns to another entry.
Input: Name the recorded IL-4 level, average of the compound listed here: CCCCCCCCCCCCCCCCC/C=C/CCCCCCCCC(=O)N[C@@H](CC[C@H]1O[C@H](CO)[C@H](O)[C@H](O)[C@H]1O)[C@H](O)[C@H](O)CCCCCCCCCCCCCC
Output: 576

###

# Test system: IL-4
# procedure-summary: IL-4 levels in sera upon i.v. glycolipid administration to C57BL/6 mice (ELISA)
# Format: in vivo
# Set-up: unit not given here
# measurement-context: hour 6
The entries below come with measured IL-4 level, average values attached.
Lab note: jot down the number only; don't add units.

Example entries begin here.
| compound | IL-4 level, average |
| --- | --- |
| CCCCCCCCCCCCCCCCCC/C=C/CCCCCCCCC(=O)N[C@@H](/C=C/[C@H]1O[C@H](CO)[C@H](O)[C@H](O)[C@H]1O)[C@H](O)[C@H](O)CCCCCCCCCCCCCC | 109 |
| CCCCCCCCCCCCCCCCC/C=C/CCCCCCCCC(=O)N[C@@H](CC[C@H]1O[C@H](CO)[C@H](O)[C@H](O)[C@H]1O)[C@H](O)[C@H](O)CCCCCCCCCCCCCC | 72.5 |
| CCCCCCCCCCCCCC[C@@H](O)[C@@H](O)[C@H](CC[C@H]1O[C@H](CO)[C@H](O)[C@H](O)[C@H]1O)NC(=O)CCCCCCCCCCCCCCCCCCCOCCCCCC | 126 |
| CCCCCCCCCCCCCCCCCCCCCCCCCC(=O)N[C@@H](CC[C@H]1O[C@H](CO)[C@H](O)[C@H](O)[C@H]1O)[C@H](O)[C@H](O)CCCCCCCCCCCCCC [CRONY, reference compound] | 73 |
| CCCCCCCCCCCCCCCCCCCCCCCCCCCCC(=O)N[C@@H](/C=C/[C@H]1O[C@H](CO)[C@H](O)[C@H](O)[C@H]1O)[C@H](O)[C@H](O)CCCCCCCCCCCCCC | 110 |
| CCCCCCCCCCCCCCCCCCCCCCCCCC(=O)N[C@@H](CO[C@H]1O[C@H](CO)[C@H](O)[C@H](O)[C@H]1O)[C@H](O)[C@H](O)CCCCCCCCCCCCCC [KRN, reference compound] | 183 |

Kindly review the next compound as well.
Input: Give the reported value of IL-4 level, average for this record: CCCCCCCCCCCCCC[C@@H](O)[C@@H](O)[C@H](CC[C@H]1O[C@H](CO)[C@H](O)[C@H](O)[C@H]1O)NC(=O)CCCCCCCCCCCCCCCCCCCOCCCCC
Output: 89
